B1: Advillin, residues 785 to 819; numbered along this chain, O75366 (parent)
chain: LSEQDFVSVFGITRGQFAALPGWKQLQMKKEKGLF

variants of: B1; assay: abundance fitness (aPCA) (normalised: wild type 0, dead -1); higher = more abundant; growth selection in yeast, the domain comes from the species named; conditions: Homo sapiens
Kind request: treat -0.3 as inclusive, so abundance fitness at -0.3 or higher is YES, anything lower is NO.

Solved cases (3 shown):
[
  {
    "SEQUENCE TEXT": "LSEQDFISVFGITRGQFAALPGWKQLQMKKEKGLF [V7I]",
    "CATEGORY LABEL": "YES"
  },
  {
    "SEQUENCE TEXT": "LSEQDFVSVFGITRGQFAALPGWKQLQMKKEFGLF [K32F]",
    "CATEGORY LABEL": "NO"
  },
  {
    "SEQUENCE TEXT": "LSEQDFVSVFGITRGQFQALPGWKQLQMKKEKGLF [A18Q]",
    "CATEGORY LABEL": "YES"
  }
]

Does the reported abundance fitness for LSEQDFVSEFGITRGQFAALPGWKQLQMKKEKGLF [V9E] fall at or above the -0.3 mark?
YES

Check if abundance fitness >= -0.3 (inclusive). Item: LSEQDFVSVFGITRGQFAALPGWKQLQMMKEKGLF [K29M]
YES

Say whether LSKQDFVSVFGITRGQFAALPGWKQLQMKKEKGLF [E3K] shows abundance fitness of -0.3 or more.
NO

Check if abundance fitness >= -0.3 (inclusive). Item: LSEDDFVSVFGITRGQFAALPGWKQLQMKKEKGLF [Q4D]
NO

Test whether the variant LSEQDFVSVFGITRGQFAALPGWKQLQMKKEKGFF [L34F] records abundance fitness of -0.3 or higher.
YES

Decide: abundance fitness of LSEQDFVSVFGITRGQFAALPGWKSLQMKKEKGLF [Q25S] >= -0.3?
NO
